FYI, the data here is from ChEMBL document CHEMBL1134637.

test system: Human alphaherpesvirus 1; test: Minimal inhibitory concentration to reduce virus-induced cytopathicity against McIntyre strain of human Herpes Simplex Virus-1; type: functional
# Lookup of reported log10 MIC keyed by entry
READOUT LABEL: log10 MIC (log10 of the value in µg/mL)

| STRUCTURE | log10 MIC |
| --- | --- |
| COc1ccc(-c2cn3c(O)c4ncn(COC(CO)CO)c4nc3n2)cc1 | -2.30 |
| Cc1ccc(-c2cn3c(O)c4ncn(COCCO)c4nc3n2)cc1 | -1.15 |
| OCCOCn1cnc2c(O)n3cc(-c4ccccc4)nc3nc21 | -0.70 |
| OCCOCn1cnc2c(O)n3cc(-c4ccc5ccccc5c4)nc3nc21 | 0.98 |
| O=[N+]([O-])c1ccc(-c2cn3c(O)c4ncn(COCCO)c4nc3n2)cc1 | 1.20 |
| CCc1cn2c(O)c3ncn(COCCO)c3nc2n1 | 0.98 |
| OCCOCn1cnc2c(O)n3ccnc3nc21 | 1.30 |
| COc1ccc(-c2cn3c(O)c4ncn(COCCO)c4nc3n2)cc1 | -1.52 |

====

tested on: Human alphaherpesvirus 2; experiment: Minimal inhibitory concentration to reduce virus-induced cytopathicity against Lyons strain of human Herpes Simplex Virus-2; format: functional

| STRUCTURE | LT GT EQ | MIC (µg/mL) |
| --- | --- | --- |
| CCc1cn2c(O)c3ncn(COCCO)c3nc2n1 | = | 9.6 |
| Cc1ccc(-c2cn3c(O)c4ncn(COC(CO)CO)c4nc3n2)cc1 | = | 0.08 |
| O=[N+]([O-])c1ccc(-c2cn3c(O)c4ncn(COCCO)c4nc3n2)cc1 | > | 16 |
| COc1ccc(-c2cn3c(O)c4ncn(COCCO)c4nc3n2)c(OC)c1 | = | 1.92 |
| COc1ccc(-c2cn3c(O)c4ncn(COCCO)c4nc3n2)cc1 | = | 0.2 |
| Nc1nc2c(ncn2COC(CO)CO)c(=O)[nH]1 | = | 0.04 |
| COc1ccccc1-c1cn2c(O)c3ncn(COCCO)c3nc2n1 | = | 9.6 |
| Nc1nc2c(ncn2COCCO)c(=O)[nH]1 | = | 0.28 |
| OCCOCn1cnc2c(O)n3cc(-c4ccccc4)nc3nc21 | = | 0.7 |
| OCCOCn1cnc2c(O)n3c(-c4ccccc4)c(-c4ccccc4)nc3nc21 | = | 16 |
| COc1ccc(-c2nc3nc4c(ncn4COCCO)c(O)n3c2-c2ccc(C(c3ccccc3)c3ccccc3)cc2)cc1 | > | 16 |
| OCCOCn1cnc2c(O)n3c(C(c4ccccc4)(c4ccccc4)c4ccccc4)cnc3nc21 | > | 16 |
| COc1cccc(-c2cn3c(O)c4ncn(COCCO)c4nc3n2)c1 | = | 3.2 |
| OCC(CO)OCn1cnc2c(O)n3ccnc3nc21 | = | 0.7 |
| COc1ccc(OC)c(-c2cn3c(O)c4ncn(COCCO)c4nc3n2)c1 | > | 16 |
| Cc1nc2nc3c(ncn3COCCO)c(O)n2c1C(c1ccccc1)(c1ccccc1)c1ccccc1 | > | 16 |
| O=c1[nH]c(=O)n([C@H]2C[C@H](O)[C@@H](CO)O2)cc1/C=C/Br | > | 100 |
| OCCOCn1cnc2c(O)n3cc(-c4ccc5ccccc5c4)nc3nc21 | = | 9.6 |
| COc1ccc(-c2cn3c(O)c4ncn(COC(CO)CO)c4nc3n2)cc1 | = | 0.02 |
| CC(=O)OCCOCn1cnc2c(O)n3cc(-c4ccc5ccccc5c4)nc3nc21 | > | 16 |
| OCCOCn1cnc2c(O)n3c(CO)cnc3nc21 | > | 3.2 |

====

# reported MIC; entries follow
system: Human alphaherpesvirus 1; assay: Minimal inhibitory concentration to reduce virus-induced cytopathicity against TK-/TK+ HSV-1 of VMW 837; format: functional

| STRUCTURE | SYSTEM | RESULT UNIT | LT GT EQ | MIC |
| --- | --- | --- | --- | --- |
| OCCOCn1cnc2c(O)n3c(-c4ccc(C(c5ccccc5)c5ccccc5)cc4)c(-c4ccccc4)nc3nc21 | Human alphaherpesvirus 1 | mg/L | > | 16 |
| O=c1c2ncn(COCCO)c2nc2n(Cc3ccccc3)c(-c3ccccc3)cn12 | Human alphaherpesvirus 1 | mg/L | > | 100 |
| Cc1nc2nc3c(ncn3COCCO)c(O)n2c1C(c1ccccc1)(c1ccccc1)c1ccccc1 | Human alphaherpesvirus 1 | mg/L | > | 16 |
| Nc1nc2c(ncn2COC(CO)CO)c(=O)[nH]1 | Human alphaherpesvirus 1 | mg/L | = | 0.07 |
| COc1cccc(-c2cn3c(O)c4ncn(COCCO)c4nc3n2)c1 | Human alphaherpesvirus 1 | mg/L | = | 9.6 |

====

tested on: Human alphaherpesvirus 1; experiment: Minimal inhibitory concentration to reduce virus-induced cytopathicity against F strain of human Herpes Simplex Virus-1 (HSV-1); type: functional; settings: Human alphaherpesvirus 1; read-out: MIC
// reported log10 of MIC for each item listed
READOUT LABEL: log10 of MIC (log10 of the value in µg/mL)

| STRUCTURE | log10 of MIC |
| --- | --- |
| OCC(CO)OCn1cnc2c(O)n3ccnc3nc21 | -0.15 |
| Nc1nc2c(ncn2COCCO)c(=O)[nH]1 | -1.10 |
| COc1ccc(-c2cn3c(O)c4ncn(COCCO)c4nc3n2)c(OC)c1 | 0.28 |
| OCCOCn1cnc2c(O)n3cc(-c4ccc5ccccc5c4)nc3nc21 | 0.98 |
| O=c1[nH]c(=O)n([C@H]2C[C@H](O)[C@@H](CO)O2)cc1/C=C/Br | -1.70 |
| COc1ccc(-c2cn3c(O)c4ncn(COCCO)c4nc3n2)cc1 | -1.15 |
| OCCOCn1cnc2c(O)n3cc(-c4ccccc4)nc3nc21 | -0.15 |
| Cc1ccc(-c2cn3c(O)c4ncn(COC(CO)CO)c4nc3n2)cc1 | -2.00 |
| COc1cccc(-c2cn3c(O)c4ncn(COCCO)c4nc3n2)c1 | 0.28 |
| Nc1nc2c(ncn2COC(CO)CO)c(=O)[nH]1 | -2.40 |
| Cc1c(-c2ccccc2)nc2nc3c(ncn3COCCO)c(O)n12 | -1.40 |
| OCCOCn1cnc2c(O)n3c(-c4ccccc4)c(-c4ccccc4)nc3nc21 | 0.98 |
| CCc1cn2c(O)c3ncn(COCCO)c3nc2n1 | 0.98 |
| COc1ccc(OC)c(-c2cn3c(O)c4ncn(COCCO)c4nc3n2)c1 | 1.20 |
| OCC(CO)OCn1cnc2c(O)n3cc(-c4ccccc4)nc3nc21 | -2.30 |
| COc1ccc(-c2cn3c(O)c4ncn(COC(CO)CO)c4nc3n2)cc1 | -2.30 |
| O=[N+]([O-])c1ccc(-c2cn3c(O)c4ncn(COCCO)c4nc3n2)cc1 | 1.20 |
| COc1ccccc1-c1cn2c(O)c3ncn(COCCO)c3nc2n1 | 0.28 |

====

test system: Human alphaherpesvirus 1; assay: Minimal inhibitory concentration to reduce virus-induced cytopathicity against TK-/TK+ HSV-1 of VMW 837; type: functional

| STRUCTURE | RESULT UNIT | LT GT EQ | MIC |
| --- | --- | --- | --- |
| OCCOCn1cnc2c(O)n3cc(-c4ccc5ccccc5c4)nc3nc21 | µg/mL | = | 12.8 |
| Cc1ccc(-c2cn3c(O)c4ncn(COCCO)c4nc3n2)cc1 | µg/mL | = | 82 |
| CCc1cn2c(O)c3ncn(COCCO)c3nc2n1 | µg/mL | = | 48 |
| Cc1c(-c2ccccc2)nc2nc3c(ncn3COCCO)c(O)n12 | µg/mL | = | 3.2 |
| COc1ccc(-c2nc3nc4c(ncn4COCCO)c(O)n3c2-c2ccc(C(c3ccccc3)c3ccccc3)cc2)cc1 | µg/mL | > | 16 |
| O=c1[nH]c(=O)n([C@H]2C[C@H](O)[C@@H](CO)O2)cc1/C=C/Br | µg/mL | > | 100 |
| COc1ccc(OC)c(-c2cn3c(O)c4ncn(COCCO)c4nc3n2)c1 | µg/mL | > | 16 |
| Cc1ccc(-c2cn3c(O)c4ncn(COC(CO)CO)c4nc3n2)cc1 | µg/mL | = | 0.1 |
| OCC(CO)OCn1cnc2c(O)n3cc(-c4ccccc4)nc3nc21 | µg/mL | = | 0.5 |
| OCCOCn1cnc2c(O)n3cc(-c4ccccc4)nc3nc21 | µg/mL | > | 70 |
| OCCOCn1cnc2c(O)n3c(-c4ccccc4)c(-c4ccccc4)nc3nc21 | µg/mL | > | 16 |
| COc1ccc(-c2cn3c(O)c4ncn(COCCO)c4nc3n2)cc1 | µg/mL | = | 21 |
| COc1ccc(-c2cn3c(O)c4ncn(COCCO)c4nc3n2)c(OC)c1 | µg/mL | = | 1.92 |
| OCCOCn1cnc2c(O)n3c(C(c4ccccc4)(c4ccccc4)c4ccccc4)cnc3nc21 | µg/mL | > | 16 |
| O=[N+]([O-])c1ccc(-c2cn3c(O)c4ncn(COCCO)c4nc3n2)cc1 | µg/mL | > | 16 |
| OCCOCn1cnc2c(O)n3c(CO)cnc3nc21 | µg/mL | > | 3.2 |
| COc1ccccc1-c1cn2c(O)c3ncn(COCCO)c3nc2n1 | µg/mL | = | 9.6 |
| CC(=O)OCCOCn1cnc2c(O)n3cc(-c4ccc5ccccc5c4)nc3nc21 | µg/mL | > | 16 |
| COc1ccc(-c2cn3c(O)c4ncn(COC(CO)CO)c4nc3n2)cc1 | µg/mL | = | 0.04 |
| Cc1nc2nc3c(ncn3COCCO[Si](C)(C)C(C)(C)C)c(O)n2c1C(c1ccccc1)(c1ccccc1)c1ccccc1 | µg/mL | > | 10 |
| Cc1c(-c2ccccc2)nc2nc3c(ncn3COC(CO)CO)c(O)n12 | µg/mL | = | 0.02 |
